Provide the recorded Percentage of living cells /P %/ for the entries that follow.
System: GR (GRMT/F6, mammary gland cancer cells of GR-strain mice)
Assay: 48 h incubation with the salts: cell fluorescence, living cells, multiplication coefficient (Table 2)
Format: cell-based, Murine
Conditions: 48 hs, 50 mcg/ml
Protocol: New compounds of formula 1 were tested on cell lines. […] 1/ Cell fluorescence /F/: after 48 hs incubation, the cells were washed away, the intensity of fluorescence was measured in a fluorescence microscope and was expressed on an arbitrary scale of 0-4 scores; […] 3/ Cell multiplication coefficient /M/ in the presence of different preparations, expressed as: [formula] […]
Lab book: enter the figure in %, no units written.

Request: Tell us which Percentage of living cells /P %/ value is on record for CC1=C(CCC(=O)O)c2cc3[nH]c(cc4nc(cc5[nH]c(cc1n2)c(C(C)NC(CC(=O)O)C(=O)O)c5C)C(C(C)NC(CC(=O)O)C(=O)O)=C4C)c(C)c3CCC(=O)O.N=C(N)NCCC[C@H](N)C(=O)O.N=C(N)NCCC[C@H](N)C(=O)O (stereo not drawn)
Response: 25

Request: Specify Percentage of living cells /P %/ for CC1=C(CCC(=O)O)c2cc3[nH]c(cc4nc(cc5[nH]c(cc1n2)c(C(C)NC(CCCCN)C(=O)O)c5C)C(C(C)NC(CCCCN)C(=O)O)=C4C)c(C)c3CCC(=O)O.N=C(N)NCCC[C@H](N)C(=O)O.N=C(N)NCCC[C@H](N)C(=O)O (stereo not drawn) [PP/Lys/2 /Arg/2, l-arginine di/N-lysyl/-protoporphyrinate] and stop.
Response: 25

Request: Please report the measured Percentage of living cells /P %/ for CC1=C(CCC(=O)O)c2cc3[nH]c(cc4nc(cc5[nH]c(cc1n2)c(C(C)NC(CO)C(=O)O)c5C)C(C(C)NC(CO)C(=O)O)=C4C)c(C)c3CCC(=O)O.N=C(N)NCCC[C@H](N)C(=O)O.N=C(N)NCCC[C@H](N)C(=O)O (stereo not drawn) [PP/Ser/2 /Arg/2, l-arginine di/N-seryl/-protoporphyrinate]
Response: 12

---

test system: KB (oral cavity cancer cells); assay: 48 h incubation with the salts: cell fluorescence, living cells, multiplication coefficient (Table 2); format: cell-based, Human; details: 48 hs, 50 mcg/ml
What Percentage of living cells /P %/ was measured for each of the following?
Provide a numeric answer, followed by its unit.

Request: Could you please provide reported Percentage of living cells /P %/ for CC1=C(CCC(=O)O)c2cc3[nH]c(cc4nc(cc5[nH]c(cc1n2)c(C(C)NC(CCCCN)C(=O)O)c5C)C(C(C)NC(CCCCN)C(=O)O)=C4C)c(C)c3CCC(=O)O.N=C(N)NCCC[C@H](N)C(=O)O.N=C(N)NCCC[C@H](N)C(=O)O (stereo not drawn) [PP/Lys/2 /Arg/2, l-arginine di/N-lysyl/-protoporphyrinate] ? Thanks!
Response: 12%

Request: Query Percentage of living cells /P %/ for CC1=C(CCC(=O)O)c2cc3[nH]c(cc4nc(cc5[nH]c(cc1n2)c(C(C)NC(CC(=O)O)C(=O)O)c5C)C(C(C)NC(CC(=O)O)C(=O)O)=C4C)c(C)c3CCC(=O)O.N=C(N)NCCC[C@H](N)C(=O)O.N=C(N)NCCC[C@H](N)C(=O)O (stereo not shown)
Response: 16%

Request: Let me know recorded Percentage of living cells /P %/ for CC1=C(CCC(=O)O)c2cc3[nH]c(cc4nc(cc5[nH]c(cc1n2)c(C(C)NC(C)C(=O)O)c5C)C(C(C)NC(C)C(=O)O)=C4C)c(C)c3CCC(=O)O.N=C(N)NCCC[C@H](N)C(=O)O.N=C(N)NCCC[C@H](N)C(=O)O (stereo not shown) , thanks.
Response: 0%

Request: Give recorded Percentage of living cells /P %/. CSCCC(NC(C)C1=C(C)c2cc3[nH]c(cc4nc(cc5[nH]c(cc1n2)c(C)c5C(C)NC(CCSC)C(=O)O)C(C)=C4CCC(=O)O)c(CCC(=O)O)c3C)C(=O)O.N=C(N)NCCC[C@H](N)C(=O)O.N=C(N)NCCC[C@H](N)C(=O)O (stereo not shown)
Response: 5%

---

system: T-47D (breast cancer cells); assay: 48 h incubation with the salts: cell fluorescence, living cells, multiplication coefficient (Table 3); type: cell-based, Human; conditions: 48 hs, 50 mcg/ml
Assay endpoint: Percentage of living cells /P %/ (%)
Your answer is read as %, so omit the unit and give the number.

Request: Answer with the recorded Percentage of living cells /P %/ for the compound listed here: CC1=C(CCC(=O)O)c2cc3[nH]c(cc4nc(cc5[nH]c(cc1n2)c(C(C)NC(Cc1c[nH]c2ccccc12)C(=O)O)c5C)C(C(C)NC(Cc1c[nH]c2ccccc12)C(=O)O)=C4C)c(C)c3CCC(=O)O.N=C(N)NCCC[C@H](N)C(=O)O.N=C(N)NCCC[C@H](N)C(=O)O (stereo not shown)
Response: 13

Request: Please report the measured Percentage of living cells /P %/ for CC1=C(CCC(=O)O)c2cc3[nH]c(cc4nc(cc5[nH]c(cc1n2)c(C(C)NC(CCC(=O)O)C(=O)O)c5C)C(C(C)NC(CCC(=O)O)C(=O)O)=C4C)c(C)c3CCC(=O)O.N=C(N)NCCC[C@H](N)C(=O)O.N=C(N)NCCC[C@H](N)C(=O)O (stereo not shown)
Response: 49

Request: Please supply the value of reported Percentage of living cells /P %/ for the item CC1=C(CCC(=O)O)c2cc3[nH]c(cc4nc(cc5[nH]c(cc1n2)c(C(C)NC(CO)C(=O)O)c5C)C(C(C)NC(CO)C(=O)O)=C4C)c(C)c3CCC(=O)O.N=C(N)NCCC[C@H](N)C(=O)O.N=C(N)NCCC[C@H](N)C(=O)O (stereo not drawn) [PP/Ser/2 /Arg/2, l-arginine di/N-seryl/-protoporphyrinate]
Response: 40

Request: Please list Percentage of living cells /P %/ recorded for the compound CC1=C(CCC(=O)O)c2cc3[nH]c(cc4nc(cc5[nH]c(cc1n2)c(C(C)NC(Cc1ccccc1)C(=O)O)c5C)C(C(C)NC(Cc1ccccc1)C(=O)O)=C4C)c(C)c3CCC(=O)O.N=C(N)NCCC[C@H](N)C(=O)O.N=C(N)NCCC[C@H](N)C(=O)O (stereo not shown)
Response: 60

Request: Output Percentage of living cells /P %/ of CC1=C(CCC(=O)O)c2cc3[nH]c(cc4nc(cc5[nH]c(cc1n2)c(C(C)NC(CCCCN)C(=O)O)c5C)C(C(C)NC(CCCCN)C(=O)O)=C4C)c(C)c3CCC(=O)O.N=C(N)NCCC[C@H](N)C(=O)O.N=C(N)NCCC[C@H](N)C(=O)O (stereo not drawn) [PP/Lys/2 /Arg/2, l-arginine di/N-lysyl/-protoporphyrinate]
Response: 57

Request: Quick one: give measured Percentage of living cells /P %/ for CC1=C(CCC(=O)O)c2cc3[nH]c(cc4nc(cc5[nH]c(cc1n2)c(C(C)NC(CC(=O)O)C(=O)O)c5C)C(C(C)NC(CC(=O)O)C(=O)O)=C4C)c(C)c3CCC(=O)O.N=C(N)NCCC[C@H](N)C(=O)O.N=C(N)NCCC[C@H](N)C(=O)O (stereo not shown)
Response: 65

Request: Read the entry CC1=C(CCC(=O)O)c2cc3[nH]c(cc4nc(cc5[nH]c(cc1n2)c(C(C)NC(CS)C(=O)O)c5C)C(C(C)NC(CS)C(=O)O)=C4C)c(C)c3CCC(=O)O.N=C(N)NCCC[C@H](N)C(=O)O.N=C(N)NCCC[C@H](N)C(=O)O (stereo not shown) and write its reported Percentage of living cells /P %/.
Response: 26

---

I'd be grateful if you could share measured Percentage of living cells /P %/ for these entries.
System: Hela (cervix uteri cancer cells)
Experiment: 48 h incubation with the salts: cell fluorescence, living cells, multiplication coefficient (Table 1)
Type: cell-based, Human
Conditions: 48 hs, 50 mcg/ml
Description: New compounds of formula 1 were tested on cell lines. […] 1/ Cell fluorescence /F/: after 48 hs incubation, the cells were washed away, the intensity of fluorescence was measured in a fluorescence microscope and was expressed on an arbitrary scale of 0-4 scores; […] 3/ Cell multiplication coefficient /M/ in the presence of different preparations, expressed as: [formula]
Write it as a number; the unit % goes unstated.

Request: For the compound CC1=C(CCC(=O)O)c2cc3[nH]c(cc4nc(cc5[nH]c(cc1n2)c(C(C)NC(Cc1c[nH]c2ccccc12)C(=O)O)c5C)C(C(C)NC(Cc1c[nH]c2ccccc12)C(=O)O)=C4C)c(C)c3CCC(=O)O.N=C(N)NCCC[C@H](N)C(=O)O.N=C(N)NCCC[C@H](N)C(=O)O (centres unmarked) [PP/Trp/2 /Arg/2] , report Percentage of living cells /P %/.
Response: 62

Request: Name the recorded Percentage of living cells /P %/ of the compound listed here: CC1=C(CCC(=O)O)c2cc3[nH]c(cc4nc(cc5[nH]c(cc1n2)c(C(C)NC(CCCCN)C(=O)O)c5C)C(C(C)NC(CCCCN)C(=O)O)=C4C)c(C)c3CCC(=O)O.N=C(N)NCCC[C@H](N)C(=O)O.N=C(N)NCCC[C@H](N)C(=O)O (stereo not drawn) [PP/Lys/2 /Arg/2, l-arginine di/N-lysyl/-protoporphyrinate]
Response: 16
